B1: SMOC2 (parent)
chain: DCAGSPQKPLCASDGRTFLSRCEF

# Variants of: B1
# Assay: protein stability index of a GFP-peptide fusion (GPS, HEK-293T) (PSI 1-6); higher = more stable;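 note: lentivirally expressed fusions sorted by FACS into six bins by GFP to DsRed ratio, PSI derived from sequencing read proportions per bin multiplied by bin number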
# Recorded conditions: c terminus: a fixed tail appended
Label scheme for protein stability index: lower than 3 is criterion not met, 3 and above is criterion met.

Variant label | Discrete label
D14N | criterion not met
S13N | criterion not met
C22F | criterion not met
R21A | criterion not met
L10M | criterion not met
P6S | criterion met
C2H | criterion met
L10R | criterion not met
C22D | criterion met
S13L | criterion not met
A12M | criterion not met
P9E | criterion not met
D14A | criterion not met
S20F | criterion not met
R21F | criterion not met
E23H | criterion not met
A3S | criterion not met
T17M | criterion met
T17F | criterion not met
Q7H | criterion not met
G4I | criterion not met
L10G | criterion met
A3W | criterion not met
C11H | criterion not met
S20L | criterion met
K8C | criterion not met
S5W | criterion not met
A12I | criterion not met
